pIC50 for assorted compounds
biological target: KRAS-WT (Homo sapiens, UniProt P01116); assay: SOS-catalyzed nucleotide exchange assay (Procedure A, TR-FRET), KRAS-WT; type: biochemical; details: nucleotide exchange, read-out: KRAS WT GNE IC50
Sequence (P01116 with tags, fused parts or gaps isoform P01116-2): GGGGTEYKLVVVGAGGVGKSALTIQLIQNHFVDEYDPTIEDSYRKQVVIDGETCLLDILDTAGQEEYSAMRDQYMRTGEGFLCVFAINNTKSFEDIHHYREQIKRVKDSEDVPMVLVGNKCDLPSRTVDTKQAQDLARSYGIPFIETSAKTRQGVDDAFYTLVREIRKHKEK
pIC50: −log10 of the molar value.
REPORTED METRIC: pIC50

| COMPOUND | REPORTED METRIC | QUANTITATIVE READOUT |
| --- | --- | --- |
| Cc1cc2[nH]ncc2c(-c2nccc3c4c(N5CCOCC(O)C5)nc(OC[C@@]56CCCN5C[C@H](F)C6)nc4n(C)c23)c1C(F)(F)F (single isomer, unassigned) | pIC50 | 5.92 |
| Cc1cc2[nH]ncc2c(-c2nccc3c2sc2nc(OC[C@@]45CCCN4C[C@H](F)C5)nc(N4CCCC5(CC(=O)N5)C4)c23)c1C(F)(F)F (some centres unmarked) | pIC50 | 6.60 |
| C[C@@]1(O)COCCN(c2nc(OC[C@]3(CN4[C@@H]5CC[C@H]4C[C@@H](F)C5)CC3(F)F)nc3sc4c(-c5c(C6(F)CC6)c(Cl)cc6[nH]ncc56)nccc4c23)C1 | pIC50 | 6.16 |
| C[C@@]1(O)COCCN(c2nc(OC[C@]3(CN4CC5(CC(F)C5)C4)CC3(F)F)nc3sc4c(-c5c(C6CC6)c(Cl)cc6[nH]ncc56)nccc4c23)C1 | pIC50 | 7.05 |
| C[C@@]1(O)COCCN(c2nc(OC[C@@]34CCCN3C/C(=C\F)C4)nc3sc4c(-c5c(C6(F)CC6)c(C(F)(F)F)cc6[nH]ncc56)nccc4c23)C1 | pIC50 | 7.58 |
| Cc1c2nc(OC[C@@]34CCCN3C[C@H](F)C4)nc(N3CCOC[C@@](C)(O)C3)c2n2ccnc(-c3c(C4CC4)c(Cl)cc4[nH]ncc34)c12 (single isomer, unassigned) | pIC50 | 7.73 |
| COCC12CC(CN1C[C@@]1(COc3nc(N4CCOC[C@@](C)(O)C4)c4c(n3)sc3c(-c5c(C6(F)CC6)c(Cl)cc6[nH]ncc56)nccc34)CC1(F)F)C2 | pIC50 | 7.41 |
| C[C@@]1(O)COCCN(c2nc(OC[C@]3(CN4CC5(CCOC5)C4)CC3(F)F)nc3sc4c(-c5c(C6(F)CC6)c(Cl)cc6[nH]ncc56)nccc4c23)C1 | pIC50 | 7.73 |
| CCc1csc2cc3[nH]ncc3c(-c3nccc4c3sc3nc(OC[C@@]56CCCN5C[C@H](F)C6)nc(N5CCOC[C@@](C)(O)C5)c34)c12 | pIC50 | 8.14 |
| Cc1cc2[nH]ncc2c(-c2nccc3c4c(N5CCCC6(CC(=O)N6)C5)nc(OC[C@@]56CCCN5C[C@H](F)C6)nc4n(C)c23)c1C(F)(F)F (single isomer, unassigned) | pIC50 | 6.34 |
| C[C@@]1(O)COCCN(c2nc(OC[C@@]34CCCN3C[C@H](F)C4)nc3sc4c(-c5ccc(F)c6sc(N)c(C#N)c56)cncc4c23)C1 | pIC50 | 6.48 |

----------
target: KRAS G12C (amino acids 1-169) (Homo sapiens, UniProt P01116, G12C); assay: SOS-catalyzed nucleotide exchange assay (Procedure B, BODIPY FL GDP displacement), KRAS G12C; conditions: read-out: KRAS G12C GNE IC50
Sequence (P01116 with tags, fused parts or gaps isoform P01116-2 G12C): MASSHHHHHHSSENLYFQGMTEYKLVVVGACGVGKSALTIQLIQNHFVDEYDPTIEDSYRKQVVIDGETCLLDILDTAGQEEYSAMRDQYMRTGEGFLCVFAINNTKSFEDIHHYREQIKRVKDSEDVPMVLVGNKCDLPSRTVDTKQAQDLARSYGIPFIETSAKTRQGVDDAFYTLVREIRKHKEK
REPORTED METRIC: IC50

| COMPOUND | RESULT |
| --- | --- |
| CC(=O)c1c(C(F)(F)F)cc2[nH]ncc2c1-c1nccc2c1sc1nc(OC[C@@]34CCCN3C[C@H](F)C4)nc(N3CCOC[C@@](C)(O)C3)c12 [Ex-59] | 183 nM |
| C[C@@]1(O)COCCN(c2nc(OC[C@@]34CCCN3C[C@H](F)C4)nc3sc4c(-c5c(C6(F)CC6)c(C6CC6)cc6[nH]ncc56)nccc4c23)C1 [Ex-57] | 62.5 nM |
| Cc1cc2[nH]ncc2c(-c2nccc3c2sc2nc(OC[C@@]45CCCN4C[C@H](F)C5)nc(N4CCOCC5(CC(=O)N5)C4)c23)c1C(F)(F)F (stereo partly drawn) [Ex-194] | 55.1 nM |
| CC1Cc2cc3[nH]ncc3c(-c3nccc4c3sc3nc(OC[C@@]56CCCN5C[C@H](F)C6)nc(N5CCOC[C@@](C)(O)C5)c34)c2C1 (stereo partly drawn) [Ex-113] | 177 nM |
| Cc1cc2[nH]ncc2c(-c2nccn3c2c(C)c2nc(OC[C@@]45CCCN4C[C@H](F)C5)nc(N4CCOC[C@@](C)(O)C4)c23)c1C(F)(F)F (single isomer, unassigned) [Ex-301] | 107 nM |
| CC1c2c(cc3[nH]ncc3c2-c2nccc3c2sc2nc(OC[C@@]45CCCN4C[C@H](F)C5)nc(N4CCOC[C@@](C)(O)C4)c23)CC1(F)F (single isomer, unassigned) [Ex-107] | 19.8 nM |
